Cited source: patent USRE49735E1

Target: human mGluR5A (Homo sapiens)
Assay: mGluR5 FLIPR Assay
Settings: positive modulator activity; HEK293 (ZF) cells with human mGluR5A and rat GLAST; Ca++ response to ~EC10 glutamate
readout: EC50

Need EC50, item O=C1N[C@@H](c2cc(C#Cc3ccccc3)cnc2F)[C@H](c2ccccc2F)O1 (single isomer, unassigned) [Example 374] > 1000 nM

# query: EC50 of entry O=C1N[C@H](c2cncc(C#Cc3cccc(Cl)c3)c2)[C@@H](c2cc(F)ccc2F)O1 [Example 385] > 1000 nM

Given the entry O=C1N[C@H](c2cccc(C#Cc3ccccc3)c2)[C@@H](c2ccc(F)cc2)O1 (single isomer, unassigned) [Example 114] , report its measured EC50. < 100 nM

Need EC50, item O=C1N[C@H](c2cncc(C#Cc3cnccn3)c2)[C@@H](c2ccc(F)cc2)O1 [Example 212] < 100 nM

For COc1cccc([C@H]2OC(=O)N[C@@H]2c2cccc(C#Cc3cncc(F)c3)c2)c1 [Example 81] , what is its reported EC50? < 100 nM

Need EC50 of COc1cccc([C@H]2OC(=O)N[C@@H]2c2cccc(C#Cc3cccnc3OC)c2)c1 [Example 78] , thanks. > 1000 nM

----------
Target: human mGluR5A (Homo sapiens, UniProt P41594)
Sequence (P41594 21-1180 isoform P41594-2): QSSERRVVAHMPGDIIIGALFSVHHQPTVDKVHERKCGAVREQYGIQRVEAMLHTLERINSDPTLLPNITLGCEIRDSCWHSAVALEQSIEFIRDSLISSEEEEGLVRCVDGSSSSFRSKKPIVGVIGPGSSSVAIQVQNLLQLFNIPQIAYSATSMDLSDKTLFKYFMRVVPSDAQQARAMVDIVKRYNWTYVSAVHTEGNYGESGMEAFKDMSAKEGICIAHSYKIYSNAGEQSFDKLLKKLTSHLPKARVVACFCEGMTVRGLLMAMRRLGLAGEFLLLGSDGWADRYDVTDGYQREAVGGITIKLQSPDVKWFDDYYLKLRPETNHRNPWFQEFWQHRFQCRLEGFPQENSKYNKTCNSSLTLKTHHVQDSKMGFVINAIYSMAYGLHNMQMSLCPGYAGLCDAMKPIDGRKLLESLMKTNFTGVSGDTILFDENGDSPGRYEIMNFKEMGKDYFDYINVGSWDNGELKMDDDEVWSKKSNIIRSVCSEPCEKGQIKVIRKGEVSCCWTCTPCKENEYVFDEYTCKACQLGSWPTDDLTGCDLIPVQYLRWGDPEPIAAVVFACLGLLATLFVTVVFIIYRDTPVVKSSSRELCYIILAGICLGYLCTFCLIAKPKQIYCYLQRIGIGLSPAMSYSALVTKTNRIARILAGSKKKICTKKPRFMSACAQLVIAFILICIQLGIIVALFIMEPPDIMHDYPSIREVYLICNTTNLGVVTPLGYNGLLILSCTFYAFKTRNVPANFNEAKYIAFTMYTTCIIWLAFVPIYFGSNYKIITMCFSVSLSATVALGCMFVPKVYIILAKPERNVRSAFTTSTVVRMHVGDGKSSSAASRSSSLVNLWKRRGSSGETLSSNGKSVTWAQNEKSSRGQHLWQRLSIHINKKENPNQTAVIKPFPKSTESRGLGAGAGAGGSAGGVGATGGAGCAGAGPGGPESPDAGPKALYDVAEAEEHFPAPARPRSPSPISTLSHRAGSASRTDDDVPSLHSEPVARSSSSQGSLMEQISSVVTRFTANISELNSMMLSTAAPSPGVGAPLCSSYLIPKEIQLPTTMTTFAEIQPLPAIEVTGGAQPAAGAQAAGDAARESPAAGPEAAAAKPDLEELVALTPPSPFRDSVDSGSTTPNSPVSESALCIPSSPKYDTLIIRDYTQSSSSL
Assay: mGluR5 FLIPR Assay
Conditions: positive modulator activity; HEK293 (ZF) cells with human mGluR5A and rat GLAST; Ca++ response to ~EC10 glutamate
pEC50: −log10 of the molar value.
readout: pEC50

Returns the measured pEC50 for the input compound. Input: `COc1cccc([C@H]2OC(=O)N[C@@H]2c2cccc(C#Cc3ccccc3N)c2)c1` 6.00 to 7.00

If you can, please state the reported pEC50 value of C[C@@]1(c2cncc(C#Cc3ccccc3)c2)NC(=O)O[C@H]1c1ccccc1 (single isomer, unassigned) . 6.00 to 7.00

// query pEC50 value for entry `C[C@@]1(c2ccc(F)cc2)OC(=O)N[C@H]1c1cncc(C#Cc2cncc(F)c2)c1` < 6.00

Dear colleague, I am looking for the recorded pEC50 of the following compound: `COc1cccc([C@H]2OC(=O)N[C@@H]2c2cccc(C#Cc3cnccn3)c2)c1` > 7.00

# lookup: pEC50 of COc1cccc([C@@H]2OC(=O)N[C@H]2c2cncc(C#Cc3ccccn3)c2)c1 (single isomer, unassigned) < 6.00

Give the measured pEC50 of `O=C1N[C@@H](c2cccc(C#Cc3ccccc3)c2)[C@H](c2ccccc2F)O1` . < 6.00

Name the reported pEC50 value associated with the compound O=C1N[C@@H](c2cncc(C#Cc3ccccc3)c2)[C@@H](c2cc(Cl)ccc2Cl)O1 (single isomer, unassigned) < 6.00

Consider the compound `O=C1N[C@H](c2cncc(C#Cc3ccccc3Cl)c2)[C@@H](c2cc(F)ccc2F)O1` and give its measured pEC50. > 7.00

Endpoint output: pEC50 of O=C1N[C@H](c2ccnc(C#Cc3ccccc3)n2)[C@@H](c2cc(F)ccc2F)O1 (racemic) . Value? < 6.00

Record request: pEC50 value, item `COc1cccc([C@@H]2OC(=O)N[C@H]2c2cccc(C#Cc3cccc(F)c3)c2)c1` < 6.00

----------
Record form. Attribute: EC50. Fill in for each entry.
Biological target: human mGluR5A (Homo sapiens)
Assay: mGluR5 FLIPR Assay
Settings: positive modulator activity; HEK293 (ZF) cells with human mGluR5A and rat GLAST; Ca++ response to ~EC10 glutamate

Need EC50 of `COc1cccc([C@H]2OC(=O)N[C@@H]2c2cccc(C#Cc3ccc(F)nc3)c2)c1` , thanks. < 100 nM

Dear colleague, I am looking for the recorded EC50 of the following compound: `COc1cccc([C@H]2OC(=O)N[C@@H]2c2cccc(C#Cc3cccc(F)n3)c2)c1` < 100 nM

Item `C[C@@]1(c2cncc(C#Cc3ccccc3)c2)NC(=O)O[C@@H]1c1ccccc1` has what recorded EC50? > 1000 nM

Given the compound `O=C1N[C@H](c2cncc(C#Cc3cccc(C(F)(F)F)c3)c2)[C@@H](c2cccc(F)c2)O1` , what is its reported EC50? > 3000 nM

Give the measured EC50 of O=C1N[C@@H](c2cncc(C#Cc3ccccc3)c2)[C@@H](c2ccncn2)O1 (single isomer, unassigned) . > 1000 nM

Which measured EC50 value corresponds to `COc1ncc(C#Cc2ccccc2)cc1[C@H]1NC(=O)O[C@@H]1c1cccc(F)c1` ? < 100 nM

Give the measured EC50 of `O=C1N[C@H](c2cncc(C#Cc3ccc(F)cc3)c2)[C@@H](c2cccc(F)c2F)O1` . < 100 nM

Data request, read-out EC50, for `O=C1N[C@@H](c2nccc(C#Cc3ccccc3)n2)[C@H](c2cccc(F)c2)O1` > 1000 nM

Need EC50, item `O=C1N[C@@H](c2ccc(C#Cc3ccccc3)cn2)[C@H](c2cccc(F)c2)O1` 100 to 1000 nM

What value of EC50 has been reported for the following compound? `O=C1N[C@@H](c2cccc(C#Cc3ccccc3)c2)[C@H](c2nc(-c3cccnc3)no2)O1` > 1000 nM

Looking for the measured EC50 of O=C1N[C@H](c2cc(C#Cc3ccccc3)ncn2)[C@@H](c2cccc(F)c2)O1 (racemic) , can you help? > 1000 nM
